These entries and their values trace back to patent US20210023012A1.

- assay-info: Steady-state pharmacokinetics of film-coated granules in pediatric subjects by age group
- Type: in vivo, human
- condition-label: human, in vivo, oral, Week 2; 9 to <12 years old; pre-adjustment, 5 sachets, 200 mg/75 mg Compound 1/Compound 2; film-coated granules; read-out: AUC, Geometric Mean
test-readout: AUC (ng·h/mL)
Answer with a number only, understood to be in ng·h/mL.

IN: For `CC(C)(C)[C@@H]1NC(=O)O[C@@H]2CCC[C@H]2OC/C=C/C(F)(F)c2nc3ccccc3nc2O[C@@H]2C[C@@H](C(=O)N[C@]3(C(=O)NS(=O)(=O)C4(C)CC4)C[C@H]3C(F)F)N(C2)C1=O` , write its AUC.
OUT: 4070

----------
- assay-info: Steady-state pharmacokinetics of film-coated granules in pediatric subjects by age group
- Format: in vivo, human
- condition-label: human, in vivo, oral, Week 2; 3 to <6 years old; pre-adjustment, 3 sachets, 120 mg/45 mg; film-coated granules; read-out: AUC, Geometric Mean
- Experimental: The study was designed to assess the steady state AUC and to assess the pharmacokinetics (PK) of Compound 1/Compound 2 in pediatric subjects by age group. […] Subjects were enrolled in this study and dosed with film-coated granules containing Compound 1/Compound 2 as generally described above in Example 3. [table] An intensive PK sample draw was done at the Week 2 visit with blood samples taken immediately prior to dose (0 hour) and at 2, 4, 6, and 12 hours post dose.
test-readout: AUC (ng·h/mL)
Respond with the bare value in ng·h/mL.

IN: Let me know recorded AUC for CC(C)(C)[C@@H]1NC(=O)O[C@@H]2CCC[C@H]2OC/C=C/C(F)(F)c2nc3ccccc3nc2O[C@@H]2C[C@@H](C(=O)N[C@]3(C(=O)NS(=O)(=O)C4(C)CC4)C[C@H]3C(F)F)N(C2)C1=O [Compound 1] , thanks.
OUT: 3030

----------
- assay-info: Single-dose crossover: bioavailability of Compound 1/Compound 2 mini-tablets
- Format: in vivo, human
- condition-label: human, in vivo, oral, Regimen G: single dose mini-tablets 200 mg/120 mg, non-fasting; N = 14; geometric mean
Recorded AUC(0-inf) values for a group of compounds are listed next.
Report the figure along with its unit, number first.

| record-smiles | AUC(0-inf) |
| --- | --- |
| CC(C)(C)[C@@H]1NC(=O)O[C@@H]2CCC[C@H]2OC/C=C/C(F)(F)c2nc3ccccc3nc2O[C@@H]2C[C@@H](C(=O)N[C@]3(C(=O)NS(=O)(=O)C4(C)CC4)C[C@H]3C(F)F)N(C2)C1=O | 704 ng·h/mL |

Now look at this entry.
IN: Fill in reported AUC(0-inf) for this entry: `COC(=O)N[C@H](C(=O)N1CCC[C@H]1c1nc2cc([C@H]3CC[C@H](c4cc5nc([C@@H]6CCCN6C(=O)[C@@H](NC(=O)OC)[C@@H](C)OC)[nH]c5cc4F)N3c3cc(F)c(N4CCC(c5ccc(F)cc5)CC4)c(F)c3)c(F)cc2[nH]1)[C@@H](C)OC`
OUT: 1320 ng·h/mL

----------
- assay-info: Blood-to-plasma ratio
- Assay type: in vitro ADME
- condition-label: human, whole blood/plasma
test-readout: blood plasma ratio
In your answer, state the number alone without any accompanying words.

| record-smiles | test-readout | observed-value |
| --- | --- | --- |
| COC(=O)N[C@H](C(=O)N1CCC[C@H]1c1nc2cc([C@H]3CC[C@H](c4cc5nc([C@@H]6CCCN6C(=O)[C@@H](NC(=O)OC)[C@@H](C)OC)[nH]c5cc4F)N3c3cc(F)c(N4CCC(c5ccc(F)cc5)CC4)c(F)c3)c(F)cc2[nH]1)[C@@H](C)OC | blood plasma ratio | 0.62 |

Okay, next one:
IN: Kindly indicate its recorded blood plasma ratio. Item: `CC(C)(C)[C@@H]1NC(=O)O[C@@H]2CCC[C@H]2OC/C=C/C(F)(F)c2nc3ccccc3nc2O[C@@H]2C[C@@H](C(=O)N[C@]3(C(=O)NS(=O)(=O)C4(C)CC4)C[C@H]3C(F)F)N(C2)C1=O`
OUT: 0.57
